Experiment: inhibitors of DENV2 cytopathic effect, primary screen, cell-based, plate reader, single concentration (AID 651640);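 further: 0% = median of neutral control wells and 100% = median of positive control wells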
Conditions: DENV2-infected cells, cytopathic effect rescue, at 9.99 µM, hits give high values
Among all 350,000 compounds or so, about 6,000 (1.7%) were called active. Roughly 5% stayed inconclusive and do not appear here. The full list was thinned out, with actives kept by preference.
endpoint: CPE inhibition (%)

[
  {
    "compound": "Cc1ccc(-c2ccc(CN3C(C)C(=O)N(Cc4cn(CCC5OCCCO5)nn4)CCS3(=O)=O)cc2)cc1 (stereo not drawn)",
    "endpoint": "CPE inhibition",
    "unitsText": "%",
    "observedValue": 86.5
  },
  {
    "compound": "Cc1ccc(-c2ccc(CN3C(C(C)C)C(=O)N(Cc4cn(CCC5OCCO5)nn4)CCS3(=O)=O)cc2)cc1 (stereo not drawn)",
    "endpoint": "CPE inhibition",
    "unitsText": "%",
    "observedValue": 6.07
  },
  {
    "compound": "Cc1ccc(-c2ccc(CN3C(C(C)C)C(=O)N(Cc4cn(CCC5OCCCO5)nn4)CCS3(=O)=O)cc2)cc1 (stereo not drawn)",
    "endpoint": "CPE inhibition",
    "unitsText": "%",
    "observedValue": 102
  },
  {
    "compound": "CC1C(=O)N(Cc2cn(Cc3ccco3)nn2)CCS(=O)(=O)N1Cc1ccc(-c2cccc(CO)c2)cc1 (stereo not drawn)",
    "endpoint": "CPE inhibition",
    "unitsText": "%",
    "observedValue": -5.64
  },
  {
    "compound": "COc1ccc(Cn2cc(CN3CCS(=O)(=O)N(Cc4ccc(-c5cccc(Cl)c5)cc4)C(C)C3=O)nn2)cc1 (stereo not drawn)",
    "endpoint": "CPE inhibition",
    "unitsText": "%",
    "observedValue": 3.05
  },
  {
    "compound": "CCNC(=O)[C@H]1[C@H](CO)[C@H]2Cn3c(cccc3=O)[C@@H]1N2Cc1cc(F)ccc1F",
    "endpoint": "CPE inhibition",
    "unitsText": "%",
    "observedValue": -7.97
  },
  {
    "compound": "CC(C)C1C(=O)N(Cc2cn(CCC3OCCO3)nn2)CCS(=O)(=O)N1Cc1ccc(-c2ccccc2C(F)(F)F)cc1 (stereo not drawn)",
    "endpoint": "CPE inhibition",
    "unitsText": "%",
    "observedValue": -6.47
  },
  {
    "compound": "COc1ccc(CC(=O)Nc2nc(-c3ccc(F)c(F)c3)cs2)cc1OC",
    "endpoint": "CPE inhibition",
    "unitsText": "%",
    "observedValue": -4.33
  }
]

Data origin, for the record: PubChem BioAssay AID651640
